Below, each of the sequences is paired with its reported shrunken log2 fold change value.
# Test system: Escherichia coli TOP10
# EXPERIMENTAL_DETAILS: shrunken log2 fold change of peptide-encoding DNA abundance (4.5 h post-induction vs induction); higher = less antimicrobial activity (less host growth inhibition)
# STATED_CONDITIONS: time post-induction: 4.5 h; library: site-saturation at positions 5, 18, 19, 20
Could you keep your reply to the number by itself?

Examples from the recorded data:
>  <SEQ_TEXT>
RRIRGRPPRLPRPRPRPCHAPRP

>  <TEST_SYSTEM>
Escherichia coli TOP10

>  <EXPERIMENTAL_RESULT>
0.274

$$$$
>  <SEQ_TEXT>
RRIRQRPPRLPRPRPRPMLSPRP

>  <TEST_SYSTEM>
Escherichia coli TOP10

>  <EXPERIMENTAL_RESULT>
-0.0514

$$$$
>  <SEQ_TEXT>
RRIRKRPPRLPRPRPRPNRYPRP

>  <TEST_SYSTEM>
Escherichia coli TOP10

>  <EXPERIMENTAL_RESULT>
0.0446

$$$$
>  <SEQ_TEXT>
RRIRFRPPRLPRPRPRPHDWPRP

>  <TEST_SYSTEM>
Escherichia coli TOP10

>  <EXPERIMENTAL_RESULT>
0.0906

$$$$
>  <SEQ_TEXT>
RRIRWRPPRLPRPRPRPARWPRP

>  <TEST_SYSTEM>
Escherichia coli TOP10

>  <EXPERIMENTAL_RESULT>
1.07

$$$$
>  <SEQ_TEXT>
RRIRIRPPRLPRPRPRPGKAPRP

>  <TEST_SYSTEM>
Escherichia coli TOP10

>  <EXPERIMENTAL_RESULT>
0.039

$$$$
>  <SEQ_TEXT>
RRIRYRPPRLPRPRPRPWHAPRP

>  <TEST_SYSTEM>
Escherichia coli TOP10

>  <EXPERIMENTAL_RESULT>
-0.25

$$$$
>  <SEQ_TEXT>
RRIRDRPPRLPRPRPRPHRSPRP

>  <TEST_SYSTEM>
Escherichia coli TOP10

>  <EXPERIMENTAL_RESULT>
-0.015

$$$$
>  <SEQ_TEXT>
RRIRNRPPRLPRPRPRPVNKPRP

>  <TEST_SYSTEM>
Escherichia coli TOP10

>  <EXPERIMENTAL_RESULT>
-0.19

$$$$
>  <SEQ_TEXT>
RRIRVRPPRLPRPRPRPYFGPRP

>  <TEST_SYSTEM>
Escherichia coli TOP10

>  <EXPERIMENTAL_RESULT>
-0.0505

$$$$

API: value(readout= shrunken log2 fold change, system= Escherichia coli TOP10, query= RRIRCRPPRLPRPRPRPVFKPRP )
-0.355

API: value(readout= shrunken log2 fold change, system= Escherichia coli TOP10, query= RRIRGRPPRLPRPRPRPLMNPRP )
0.303

API: value(readout= shrunken log2 fold change, system= Escherichia coli TOP10, query= RRIRMRPPRLPRPRPRPVHDPRP )
0.0188

API: value(readout= shrunken log2 fold change, system= Escherichia coli TOP10, query= RRIRGRPPRLPRPRPRPICGPRP )
0.728

API: value(readout= shrunken log2 fold change, system= Escherichia coli TOP10, query= RRIRARPPRLPRPRPRPYYHPRP )
-1.02

---

# Tested on: Escherichia coli TOP10
# EXPERIMENTAL_DETAILS: shrunken log2 fold change of peptide-encoding DNA abundance (4.5 h post-induction vs induction); higher = less antimicrobial activity (less host growth inhibition)
# STATED_CONDITIONS: time post-induction: 4.5 h; library: site-saturation at positions 5, 18, 19, 20
MEASURE_NAME: shrunken log2 fold change
Could you keep your reply to the number by itself?

>  <SEQ_TEXT>
RRIRERPPRLPRPRPRPKFGPRP

>  <shrunken log2 fold change>
0.37

$$$$
>  <SEQ_TEXT>
RRIRTRPPRLPRPRPRPLYAPRP

>  <shrunken log2 fold change>
-0.274

$$$$

Name the recorded shrunken log2 fold change for RRIRSRPPRLPRPRPRPKFCPRP .
-0.471

Name the recorded shrunken log2 fold change for RRIRDRPPRLPRPRPRPTDSPRP .
-0.0622

Name the recorded shrunken log2 fold change for RRIRKRPPRLPRPRPRPVKHPRP .
-0.0571

Name the recorded shrunken log2 fold change for RRIRMRPPRLPRPRPRPNDTPRP .
0.11

Name the recorded shrunken log2 fold change for RRIRYRPPRLPRPRPRPKIGPRP .
-0.177

Name the recorded shrunken log2 fold change for RRIRLRPPRLPRPRPRPLSFPRP .
-0.15

Name the recorded shrunken log2 fold change for RRIRIRPPRLPRPRPRPPFEPRP .
-0.0183

---

# Tested on: Escherichia coli TOP10
# EXPERIMENTAL_DETAILS: shrunken log2 fold change of peptide-encoding DNA abundance (4.5 h post-induction vs induction); higher = less antimicrobial activity (less host growth inhibition)
# STATED_CONDITIONS: time post-induction: 4.5 h; library: site-saturation at positions 5, 18, 19, 20
Below, each of the sequences is paired with its reported shrunken log2 fold change value.
Could you keep your reply to the number by itself?

Examples from the recorded data:
>  <SEQ_TEXT>
RRIRQRPPRLPRPRPRPYKSPRP

>  <shrunken log2 fold change>
-0.248

$$$$
>  <SEQ_TEXT>
RRIRYRPPRLPRPRPRPNNLPRP

>  <shrunken log2 fold change>
-0.582

$$$$
>  <SEQ_TEXT>
RRIRHRPPRLPRPRPRPRPSPRP

>  <shrunken log2 fold change>
0.466

$$$$
>  <SEQ_TEXT>
RRIRARPPRLPRPRPRPIFCPRP

>  <shrunken log2 fold change>
0.445

$$$$
>  <SEQ_TEXT>
RRIRARPPRLPRPRPRPCFWPRP

>  <shrunken log2 fold change>
0.364

$$$$

Name the recorded shrunken log2 fold change for RRIRRRPPRLPRPRPRPYMLPRP .
-0.685

Name the recorded shrunken log2 fold change for RRIRHRPPRLPRPRPRPPSRPRP .
0.17

Name the recorded shrunken log2 fold change for RRIRERPPRLPRPRPRPDDLPRP .
0.00911

Name the recorded shrunken log2 fold change for RRIRMRPPRLPRPRPRPSGNPRP .
-0.14

Name the recorded shrunken log2 fold change for RRIRLRPPRLPRPRPRPFCAPRP .
0.106

---

# Test system: Escherichia coli TOP10
# EXPERIMENTAL_DETAILS: shrunken log2 fold change of peptide-encoding DNA abundance (4.5 h post-induction vs induction); higher = less antimicrobial activity (less host growth inhibition)
# STATED_CONDITIONS: time post-induction: 4.5 h; library: site-saturation at positions 5, 18, 19, 20
MEASURE_NAME: shrunken log2 fold change
Could you keep your reply to the number by itself?

>  <SEQ_TEXT>
RRIRGRPPRLPRPRPRPCMYPRP

>  <shrunken log2 fold change>
0.013

$$$$
>  <SEQ_TEXT>
RRIRVRPPRLPRPRPRPERGPRP

>  <shrunken log2 fold change>
0.416

$$$$
>  <SEQ_TEXT>
RRIRCRPPRLPRPRPRPVPTPRP

>  <shrunken log2 fold change>
0.116

$$$$
>  <SEQ_TEXT>
RRIRNRPPRLPRPRPRPASNPRP

>  <shrunken log2 fold change>
-0.065

$$$$

Switching to the query record.
Name the recorded shrunken log2 fold change for RRIRKRPPRLPRPRPRPITFPRP .
-0.0147

---

# Tested on: Escherichia coli TOP10;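 also: peptides expressed intracellularly from a pBAD plasmid library in pooled LB shake-flask culture, induced with 0.3% L-arabinose, DNA abundance read by NGS, three biological replicates, DESeq2 with apeglm shrinkage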
# EXPERIMENTAL_DETAILS: shrunken log2 fold change of peptide-encoding DNA abundance (4.5 h post-induction vs induction); higher = less antimicrobial activity (less host growth inhibition)
# STATED_CONDITIONS: time post-induction: 4.5 h; library: site-saturation at positions 5, 18, 19, 20
shrunken log2 fold change class ranges: low group = under -0.08, middle group = from -0.08 up to 0.2, high group = 0.2 and over

Band for RRIRTRPPRLPRPRPRPHVWPRP ?
high group

Band for RRIRDRPPRLPRPRPRPTNTPRP ?
low group

Band for RRIRRRPPRLPRPRPRPLTRPRP ?
high group

Band for RRIRIRPPRLPRPRPRPQEYPRP ?
low group

Band for RRIRRRPPRLPRPRPRPCPSPRP ?
middle group

Band for RRIRWRPPRLPRPRPRPTYAPRP ?
middle group

Band for RRIRGRPPRLPRPRPRPCPDPRP ?
high group

Band for RRIRMRPPRLPRPRPRPFDWPRP ?
high group

Band for RRIRHRPPRLPRPRPRPCVKPRP ?
low group

Band for RRIRMRPPRLPRPRPRPLANPRP ?
high group

Band for RRIRYRPPRLPRPRPRPETNPRP ?
middle group

Band for RRIRSRPPRLPRPRPRPNIEPRP ?
low group

Band for RRIRHRPPRLPRPRPRPRMQPRP ?
middle group

Band for RRIRMRPPRLPRPRPRPHQNPRP ?
middle group

Band for RRIRVRPPRLPRPRPRPEAHPRP ?
middle group

Band for RRIRARPPRLPRPRPRPCWQPRP ?
middle group

Band for RRIRCRPPRLPRPRPRPHMTPRP ?
low group
